Exercise: state measured Phage binding ELISA, Anti-CD28 Fab signal in the presence of CD28 for each of the binders provided.
Biological target: T1, Anti-CD28 Fab (SEQ ID NOs: 696, 697)
T1 construct: Biotinylated and captured on neutravidin coated plates in the phage ELISA
T1 sequence (VH, as listed by the source, chain 1 of 2): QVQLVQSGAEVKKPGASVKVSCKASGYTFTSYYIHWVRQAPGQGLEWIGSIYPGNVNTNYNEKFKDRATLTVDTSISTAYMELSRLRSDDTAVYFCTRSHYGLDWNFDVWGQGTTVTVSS
T1 sequence (VL, as listed by the source, chain 2 of 2): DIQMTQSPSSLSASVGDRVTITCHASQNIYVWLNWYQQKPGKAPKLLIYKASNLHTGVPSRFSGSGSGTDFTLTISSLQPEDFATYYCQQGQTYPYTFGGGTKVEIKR
Assay: phage ELISA; biotinylated anti-CD28 Fab on neutravidin plate, wells pre-incubated with CD28 antigen as competitor, anti-M13 HRP detection
Reply: number alone, nothing else.

What does the record list as Phage binding ELISA, Anti-CD28 Fab signal in the presence of CD28 for SCSAGALWKWPVCF [Phage-1563] ?
0.07

What does the record list as Phage binding ELISA, Anti-CD28 Fab signal in the presence of CD28 for SCAAGATYVWPMCF [Phage-1574] ?
0.07

What does the record list as Phage binding ELISA, Anti-CD28 Fab signal in the presence of CD28 for TCAAGAHYSWPFCM [Phage-1575] ?
0.07

What does the record list as Phage binding ELISA, Anti-CD28 Fab signal in the presence of CD28 for TCSAGATYAWPACF [Phage-1568] ?
0.08

What does the record list as Phage binding ELISA, Anti-CD28 Fab signal in the presence of CD28 for TCSAGATYMWPACF [Phage-1567] ?
0.1

What does the record list as Phage binding ELISA, Anti-CD28 Fab signal in the presence of CD28 for LCAAGATYPWPICL [Phage-1562] ?
0.08

What does the record list as Phage binding ELISA, Anti-CD28 Fab signal in the presence of CD28 for WCDQFFHYKWPLCL [Phage-1573] ?
0.07

What does the record list as Phage binding ELISA, Anti-CD28 Fab signal in the presence of CD28 for SCSAGAMYQWPLCF [Phage-1565] ?
0.09

What does the record list as Phage binding ELISA, Anti-CD28 Fab signal in the presence of CD28 for TCEDGFHFSWPECF [Phage-1570] ?
0.07
